# Assay protocol: HEK293 24hr Apoptosis Induction qHTS against the NCATS CANVASS Library (AID 1347359)
# Test parameters: HEK293 caspase-3/7 activation, Caspase-Glo luminescence; series mostly up to 46.1 µM
# From the text: Natural products and their derivatives continue to be wellsprings of nascent therapeutic potential. […] To address this issue, the Canvass library of natural products was assembled (https://tripod.nih.gov/canvass), in collaboration with academic and industry researchers, for quantitative high-throughput screening (qHTS) across a diverse set of cell-based and biochemical assays. […] The luminescence is proportional to the amount of caspase activity in the assay reaction. […]
Results filed as inconclusive are left out. The source made the active and inactive calls. Calls follow the shape of the dose curve; as a rule, active = well fitted activation curve with a large enough effect; inconclusive = small, poorly fitted or top-dose-only effect; inactive = flat fitted curve, though single readings scatter.
Quantity name: outcome

C=C1C[C@@]23C=CC(=O)[C@@](C)(CCC(=O)Nc4c(OC5O[C@H](CO)[C@@H](O)[C@H](O)[C@H]5O)ccc(C(=O)O)c4O)C2C[C@@H]1CC3 (stereo partly drawn); inactive
CO[C@@H]1C[C@@H](C[C@H]2CC[C@H](C)[C@H]([C@@H](C)C(=O)O)O2)O[C@]2(O[C@](C)([C@H]3CC[C@@](C)([C@@H]4O[C@@H]([C@H]5O[C@](C)(O)[C@H](C)C[C@@H]5C)C[C@@H]4C)O3)C[C@H]2C)[C@@H]1C; inactive
C[C@@H](O)[C@H]1OC(=O)C=C2[C@]3(C)[C@H]4[C@H](OC(=O)[C@@]4(C)[C@@H](O)[C@H]4O[C@H]43)[C@H]3O[C@@]231; inactive

====

# Assay protocol: OV-KATE Cancer Cell Toxicity qHTS against the NCATS CANVASS Library (AID 1347345); also: potency is read from the fitted curve at half-maximal effect
# Test parameters: OV-KATE cells viability, CellTiter-Glo luminescence, 72 h; series mostly up to 38.3 µM
Inconclusive results are not listed. Calls of active or inactive are those of the source. Calls follow the shape of the dose curve; as a rule, active = well fitted cell-killing curve with a large enough effect; inconclusive = small, poorly fitted or top-dose-only effect; inactive = flat fitted curve, though single readings scatter.
Quantity name: Potency

Field: example entries. Status: answers known.
C=C(NC(=O)c1csc(-c2nc3c(cc2O)-c2nc(cs2)C(=O)NC(C(C)O)C(=O)N/C(=C(\C)O)c2nc(cs2)C(=O)NC2c4nc(cs4)C(=O)NC(COC(=O)c4c5c6c(cccc6n4O)COC(=O)[C@@H](OC4C[C@](C)(O)[C@H](N(C)C)[C@H](C)O4)C2OC5)c2nc-3cs2)n1)C(N)=O (stereo not given in full); inactive
O=C1CC(c2cc(O)cc(O)c2)Oc2cc(O)ccc21 (stereo not given); inactive
CC(=O)O[C@@H]1C=C2C(=O)OC[C@]2(O)[C@@]2(C)CCCC(C)(C)[C@H]12; 5.94 µM (active)
O=C(O)CC1OC(=O)c2c(O)cccc21 (stereo not given); inactive
C=C(C)C(=O)O[C@H]1C[C@H](C)[C@@H](OC(C)=O)CC[C@@]2(C)O[C@@H]2[C@H]2OC(=O)C(COC(C)=O)=C12; 4.2 µM (active)
C=C[C@]1(C)CC[C@@H]([C@H](C)C(=O)OCC)O1; inactive
CO[C@@H]1[C@H](O)[C@@H](C)O[C@@H](OC[C@@H]2C(C)OC(=O)/C=C/[C@H](C)C(O[C@@H]3O[C@H](C)CC4(OC(=O)O[C@@H]4C)C3O)[C@@H](C)CC(C)C(=O)CC[C@H]3OC23)[C@@H]1OC (stereo not given in full); inactive
CCCCCC[C@H](CCCCC[C@@H](O)C(N)=O)OC(=O)[C@@H]1CC=CN1C(=O)c1ccccc1O; inactive

### Prompt Given the compound CCC[C@@H](C)/C=C(\C)[C@H](O)[C@H](C)/C=C/CC[C@@H](O)[C@H](C)[C@H](O)[C@H](C)[C@H](O)[C@H](C)[C@H]1O[C@H]([C@H](C)C(=O)O)CC[C@@H]1C , write its reported Potency.
### Response 3.75 µM (active)

### Prompt Given the compound CN1CC[C@]2(c3cccc4c3N[C@@H]3N(C)CC[C@]43[C@@]34CCN(C)[C@@H]3Nc3ccccc34)c3ccccc3N[C@H]12 , write its reported Potency.
### Response 14.9 µM (active)

### Prompt Given the compound C[C@@H](CCC[C@]1(C)C(=O)C=C[C@]23C[C@H]4C[C@H](O[C@@]4(C)C2)C31)C(=O)N[C@@H](CO)C(=O)O (stereo not given in full) , write its reported Potency.
### Response inactive

### Prompt Given the compound CC(C)=CCC/C(C)=C/Cc1c(O)c(CC=C(C)C)c(O)c2c(=O)c3cc(O)ccc3oc12 , write its reported Potency.
### Response 2.36 µM (active)

### Prompt Given the compound C[C@@H]1O[C@H](c2c(O)cc(O)c3c(=O)cc(-c4ccc(O)cc4)oc23)[C@H](O)[C@H](O)[C@H]1O , write its reported Potency.
### Response inactive

### Prompt Given the compound COc1cc(/C=C2/C(=O)N(c3ccc(O)cc3C(=O)O)[C@H](c3ccc(O)c(OC)c3)C2C(=O)Nc2ccc(O)cc2C(=O)O)ccc1O (stereo not given in full) , write its reported Potency.
### Response inactive

### Prompt Given the compound CCCCCCCCCCCCCCC[C@H](O)C[C@@H](O)C[C@@H](O)C[C@@H](O)C[C@@H](O)C[C@H]1CC=CC(=O)O1 , write its reported Potency.
### Response 2.11 µM (active)

====

The reader will find reported Potency values listed item by item below.
# Test target: Glucocorticoid receptor (Homo sapiens)
# Assay protocol: GR-EFC Redistribution (AID 451); also: potency is read from the fitted curve at half-maximal effect
# Test parameters: CHO-K1 GR-EFC translocation, beta-gal luminescence, 2 h
The source made the active and inactive calls. Calls follow the shape of the full dose curve.

### Prompt For Glucocorticoid receptor (Homo sapiens), give Potency of the listed molecule: COC(=O)C1=C(C)NC(C)=C([N+](=O)[O-])[C@@H]1c1ccccc1C(F)(F)F
### Response > 46 µM (inactive)

### Prompt For Glucocorticoid receptor (Homo sapiens), give Potency of the listed molecule: O=C(O)c1ccc2c3c1cccc3c(=O)n1c3ccccc3nc21
### Response > 46 µM (inactive)

### Prompt For Glucocorticoid receptor (Homo sapiens), give Potency of the listed molecule: Nc1nc(Nc2ccccc2)nc2c1ncn2[C@@H]1O[C@@H](CO)[C@H](O)[C@H]1O
### Response > 46 µM (inactive)

### Prompt For Glucocorticoid receptor (Homo sapiens), give Potency of the listed molecule: COC(=O)/C=C\c1cc(O)ccc1O
### Response > 46 µM (inactive)

### Prompt For Glucocorticoid receptor (Homo sapiens), give Potency of the listed molecule: CC(C)(C)c1cc(O)c(C(C)(C)C)cc1O
### Response > 46 µM (inactive)

### Prompt For Glucocorticoid receptor (Homo sapiens), give Potency of the listed molecule: NCCCCNS(=O)(=O)c1ccc2c(Cl)cccc2c1
### Response > 46 µM (inactive)

### Prompt For Glucocorticoid receptor (Homo sapiens), give Potency of the listed molecule: Cc1cc(C)cc(C(=O)N(C)[C@H](Cc2ccc(-c3ccccc3)cc2)C(=O)N[C@@H](Cc2c[nH]c3ccccc23)C(=O)O)c1
### Response > 46 µM (inactive)

### Prompt For Glucocorticoid receptor (Homo sapiens), give Potency of the listed molecule: CC[C@]1(O)C[C@@H]2CN(CCc3c([nH]c4ccccc34)[C@](C(=O)OC)(c3cc4c(cc3OC)N(C=O)[C@H]3[C@@](O)(C(=O)OC)[C@H](C(=O)OC)[C@@]5(CC)C=CCN6CC[C@]43[C@H]65)C2)C1
### Response > 46 µM (inactive)

### Prompt For Glucocorticoid receptor (Homo sapiens), give Potency of the listed molecule: NC1=NCCCC1
### Response > 46 µM (inactive)

====

# Assay protocol: Primary fluorescence-based thiol-reactive (MSTI) qHTS assay for identification of artifact compounds. (AID 1845221); also: nearly all actives have a fitted effect of over 65% in size
# Test parameters: MSTI thiol-reactivity probe, 1 h; series mostly up to 53.8 µM
Results filed as inconclusive are left out. Active and inactive are the calls of the source. Calls follow the shape of the dose curve; as a rule, active = well fitted inhibition curve with a large enough effect; inconclusive = small, poorly fitted or top-dose-only effect; inactive = no such curve, though single readings can be large or run the other way.
A correct response names exactly one class from t (active), f (inactive)

Worked set:
CC(C)N(CCCNC(=O)Nc1ccc(C(C)(C)C)cc1)C[C@H]1O[C@@H](n2cc(Br)c3c(N)ncnc32)[C@H](O)[C@@H]1O; f
COc1cc(-c2cc(-c3cccc(O)c3)cnc2N)cc(OC)c1OC; f
C=C1CC[C@@H]2[C@](C)(CO)[C@H](O)CC[C@@]2(C)[C@@H]1C/C=C1/C(=O)OC[C@@H]1O; f
CCNC(=O)[C@@H]1CCCN1C(=O)[C@H](CCCN=C(N)N)NC(=O)[C@H](CC(C)C)NC(=O)[C@@H](CC(C)C)NC(=O)[C@H](Cc1ccc(O)cc1)NC(=O)[C@H](CO)NC(=O)[C@H](Cc1c[nH]c2ccccc12)NC(=O)[C@H](Cc1cnc[nH]1)NC(=O)[C@@H]1CCC(=O)N1; f
CCOP(=O)(Cc1ccc(C(=O)Nc2ccc(Br)cc2C#N)cc1)OCC; f

### Prompt Test call, this molecule: CCOc1cc(CNC2CCCC2)cc(Cl)c1OCc1ccc(Cl)cc1
### Response f

### Prompt Test call, this molecule: C=C1C(=O)O[C@H]2[C@H]1[C@@H](OC(=O)/C(C)=C\C)C[C@]1(C)O[C@@H]1[C@H]1O[C@H]1C(=C)[C@H]2O
### Response f

### Prompt Test call, this molecule: COCCOCCOc1ccc(C2=N[C@@](C)(C(=O)O)CS2)c(O)c1
### Response t
